# Tested on: 7G8
# Protocol description: qHTS profiling for inhibitors of Plasmodium falciparum proliferation (AID 504749); also: nearly all actives have a fitted effect of over 60% in size
# Condition details: P. falciparum in erythrocytes, SYBR Green DNA, 72 h; series mostly up to 12.8 µM
Records with an inconclusive call do not appear. Active and inactive are the calls of the source. Calls follow the shape of the dose curve; as a rule, active = well fitted inhibition curve with a large enough effect; inconclusive = small, poorly fitted or top-dose-only effect; inactive = flat fitted curve, though single readings scatter.
Endpoint name: outcome

NC(N)=NC[C@@H]1COC2(CCCCC2)O1
inactive
CCCN[C@@H](C)C(=O)Nc1ccccc1C
inactive
O=C(c1ccccc1)c1ccc2n1CC[C@H]2C(=O)O
inactive
CC(=O)OCC1=C(C(=O)O)N2C(=O)[C@@H](NC(=O)CSc3ccncc3)[C@@H]2SC1
inactive
COCCc1ccc(OC[C@H](O)CNC(C)C)cc1
inactive

Alright, here's another compound for you.
Briefly, outcome measured for C[N+](C)(C)CC(O)CC(=O)O (stereo unspecified) : inactive

###

# Protocol description: qHTS Assay for Lipid Storage Modulators (AID 1519)
# Condition details: Drosophila S3 cells, BODIPY lipid droplet/cell ratio, laser cytometry; measured here: cell count channel max response; cells loaded with oleic acid
Results filed as inconclusive are left out.
Please provide measured max response for the entries that follow.
Answer in %, number only, no unit symbol.

// C=C(NC(=O)C(=C)NC(=O)c1csc(C2=NC3c4csc(n4)C4NC(=O)c5csc(n5)C(C(C)(O)C(C)O)NC(=O)C5CSC(=N5)C(=CC)NC(=O)C(C(C)O)NC(=O)c5csc(n5)C3(CC2)NC(=O)C(C)NC(=O)C(=C)NC(=O)C(C)NC(=O)C(C(C)CC)NC2C=Cc3c(C(C)O)cc(nc3C2O)C(=O)OC4C)n1)C(N)=O (stereo not given) : max response value = 27.8

For record `c1ccc(C(c2ccccc2)N2CC[C@@]3(CCCNC3)C2)cc1` the listed max response is 4.5

Measured max response of `CS(=O)(=O)N1CCC2(CC1)CN(Cc1ccccc1)C2` : 6.73

Form: compound = `COc1ccc(C(=O)N2CCC3(CCN(C(=O)Nc4cccc(F)c4)CC3)CC2)cc1` ; max response = 13.8

max response for `O=C(c1ccncc1)N1CCC2(CC1)CN(c1ccncc1)C2` is -20.1

###

# Experimental target: 3',5'-cyclic-AMP phosphodiesterase 4B (Homo sapiens) (UniProt Q07343)
# Sequence (Q07343 whole entry, looked up): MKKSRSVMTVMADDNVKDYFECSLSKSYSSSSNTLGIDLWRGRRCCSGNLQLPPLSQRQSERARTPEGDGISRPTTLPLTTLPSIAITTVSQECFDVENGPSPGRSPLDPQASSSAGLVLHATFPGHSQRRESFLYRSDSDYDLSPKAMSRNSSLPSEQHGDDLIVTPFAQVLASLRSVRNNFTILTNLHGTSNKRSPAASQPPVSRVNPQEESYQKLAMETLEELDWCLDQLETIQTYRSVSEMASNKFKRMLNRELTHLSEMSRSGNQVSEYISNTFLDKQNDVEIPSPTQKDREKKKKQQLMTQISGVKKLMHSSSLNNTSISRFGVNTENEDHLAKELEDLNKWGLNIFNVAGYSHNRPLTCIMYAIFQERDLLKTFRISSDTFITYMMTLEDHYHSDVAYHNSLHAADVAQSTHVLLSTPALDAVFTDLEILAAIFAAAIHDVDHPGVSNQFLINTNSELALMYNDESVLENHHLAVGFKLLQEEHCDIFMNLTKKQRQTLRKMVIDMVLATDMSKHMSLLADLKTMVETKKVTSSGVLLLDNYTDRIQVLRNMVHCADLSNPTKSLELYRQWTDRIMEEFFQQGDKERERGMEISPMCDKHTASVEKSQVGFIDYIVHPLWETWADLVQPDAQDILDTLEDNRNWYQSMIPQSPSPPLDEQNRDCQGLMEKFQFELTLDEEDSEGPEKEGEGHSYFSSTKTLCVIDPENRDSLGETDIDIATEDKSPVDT
# Protocol description: qHTS Assay for Inhibitors of PDE-IV (AID 607); also: % of control where 0% means no effect
# Condition details: HEK293 ACTOne CNG channel cells, membrane potential fluorescence; series mostly up to 22.9 µM
Records with an inconclusive call do not appear. Calls of active or inactive are those of the source. The call rests on the fitted dose curve; in most records, active means well fitted activation curve with a large enough effect in the main read-out, with a control signal flat (not every such curve was filed as active); inconclusive means small, poorly fitted or top-dose-only effect, or effect the other way, or a change in a side signal; inactive means flat fitted curve, though single readings scatter.
Endpoint name: outcome

# annotated cases, reported outcome shown
N[C@H](C(=O)N[C@@H]1C(=O)N2C(C(=O)O)=C(Cl)CS[C@@H]12)c1ccccc1
inactive
CS(=O)(=O)Nc1cccc(-c2cncnc2Nc2ccccc2)c1
inactive
CN1CCCC[C@@H]1CCN1c2ccccc2Sc2ccc(S(C)=O)cc21 (stereo not given in full)
inactive
CC(C)CN1CCCC2(CCN(C(=O)c3cccc(F)c3)CC2)C1
inactive

Pending compound:
# outcome (compound: `COc1cccc(Cn2c(=O)c(-c3cn(C)c4ccccc34)nc3cncnc32)c1` ) is inactive

###

Provide the recorded Potency for the entries that follow.
# Experimental target: Glucocorticoid receptor (Homo sapiens) (UniProt P04150)
# Sequence (P04150 whole entry, looked up): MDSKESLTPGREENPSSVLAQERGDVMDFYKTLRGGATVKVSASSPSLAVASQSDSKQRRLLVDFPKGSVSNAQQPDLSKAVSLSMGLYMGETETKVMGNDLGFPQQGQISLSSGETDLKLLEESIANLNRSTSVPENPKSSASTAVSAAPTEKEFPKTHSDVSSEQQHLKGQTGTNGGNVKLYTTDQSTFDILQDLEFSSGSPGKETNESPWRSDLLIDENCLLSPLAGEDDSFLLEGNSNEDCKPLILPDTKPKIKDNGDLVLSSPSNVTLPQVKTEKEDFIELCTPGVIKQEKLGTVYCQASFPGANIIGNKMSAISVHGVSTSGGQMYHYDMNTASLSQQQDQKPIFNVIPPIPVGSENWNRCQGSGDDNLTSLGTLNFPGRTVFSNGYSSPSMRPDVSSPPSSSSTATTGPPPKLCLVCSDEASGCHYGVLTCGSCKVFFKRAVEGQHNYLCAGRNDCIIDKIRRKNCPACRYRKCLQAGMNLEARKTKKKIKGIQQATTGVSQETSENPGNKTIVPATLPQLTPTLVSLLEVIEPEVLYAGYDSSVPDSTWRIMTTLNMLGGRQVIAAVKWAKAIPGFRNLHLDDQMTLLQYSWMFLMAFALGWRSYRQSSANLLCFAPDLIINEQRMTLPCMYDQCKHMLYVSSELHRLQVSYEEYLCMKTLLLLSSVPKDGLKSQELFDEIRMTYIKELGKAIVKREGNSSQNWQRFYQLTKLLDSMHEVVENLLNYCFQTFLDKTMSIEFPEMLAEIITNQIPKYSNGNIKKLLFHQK
# Protocol description: GR-GFP Redistribution (AID 450); also: potency is read from the fitted curve at half-maximal effect
# Condition details: U2OS GR-GFP nuclear translocation, laser cytometry, 2 h
Active and inactive are the calls of the source.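 Rule for the calls: active = compounds whose dose series gives a full or clear partial fitted curve of increased nuclear translocation; inconclusive = weak partial curve or effect only at the top dose; inactive = no dose-dependent translocation response.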

Item: `O=c1[nH]c(=O)n([C@@H]2C[C@H](O)[C@H](CO)O2)cc1I` | Potency: > 20.6 µM (inactive)

Lab note: measured Potency of `c1nc(NCCN2CCOCC2)c2cc(-c3ccoc3)ccc2n1` was > 46 µM (inactive)

Reported Potency of `Cc1cnc(CNc2cc(-c3cccc(C#N)c3)ncn2)cn1` : > 46 µM (inactive)

Recorded result, `COc1ccccc1-c1cc(NCc2cccs2)ncn1` , Potency: > 46 µM (inactive)

In plain terms, `COCCNc1nc(-c2cccc(OC)c2)nc2ccccc12` has a documented Potency of > 46 µM (inactive)

GET /value?item= `CN(C)c1ccc(-c2ccc3ncnc(N(C)Cc4ccco4)c3c2)cc1` &field=Potency returns > 46 µM (inactive)

`COc1ncc2nc(-c3ccc(Cl)cc3)c(=O)n(C)c2n1` has a reported Potency of > 9.22 µM (inactive)

response.value for `Cc1cccc(CNc2nc(-c3ccoc3)nc3ccccc23)c1` (field: Potency) = > 46 µM (inactive)

Noted for `O=c1cnc2cnc(Oc3ccccc3)nc2n1C[C@H]1CCCO1` : its Potency reads > 9.22 µM (inactive)

Consider `CCNc1ncc2nc(-c3ccc(Cl)cc3)c(=O)n(Cc3ccc(F)cc3)c2n1` . Its measured Potency is > 9.22 µM (inactive)

The molecule listed as `FC(F)(F)c1ccccc1-c1cncnc1NCCN1CCOCC1` shows Potency equal to > 46 µM (inactive)

For this molecule ( `COc1ccc(-c2nc3cncnc3n(-c3ccccc3)c2=O)cc1` ), measured Potency is > 9.22 µM (inactive)

The molecule `CN(C)Cc1ccccc1-c1cc(NCc2cccs2)ncn1` showed Potency equal to > 46 µM (inactive)

molecule `CS(=O)(=O)Nc1cccc(-c2nc(N3CCNCC3)c3ccccc3n2)c1` , Potency observed: > 46 µM (inactive)

Potency reading for `CN(Cc1ccco1)c1cc(-c2cccc(NS(C)(=O)=O)c2)ncn1` : > 46 µM (inactive)

Lab note: `c1cncc(-c2cncnc2NCc2cccs2)c1` gave Potency of > 46 µM (inactive)

Record `COCCn1c(=O)cnc2cnc(OCc3ccccc3)nc21` , field Potency: > 9.22 µM (inactive)

Notebook: `COCCn1c(=O)c(-c2cn(C)c3ccccc23)nc2cncnc21` , Potency read as > 9.22 µM (inactive)

Documented Potency of `CNc1nc(-c2ccoc2)nc2ccccc12` : > 46 µM (inactive)

response.value for `CN(C)c1ncc2nc(-c3ccccc3)c(=O)n(CCc3ccccc3)c2n1` (field: Potency) = > 9.22 µM (inactive)

`COc1cc(/C=C\c2ccc(OC)cc2OC)cc(OC)c1` yielded Potency of > 46 µM (inactive)

// sample `Cc1noc(C)c1-c1nccc(N(C)C)n1` , its Potency was > 46 µM (inactive)

// sample `O=c1c(-c2ccc(F)cc2)nc2cnc(N3CCOCC3)nc2n1-c1ccccc1` , its Potency was > 9.22 µM (inactive)

Short answer for `COc1ccc(-n2c(=O)c(-c3ccc(Cl)cc3)nc3cncnc32)cc1` : Potency was > 9.22 µM (inactive)

###

# Tested on: CP325
# Protocol description: qHTS profiling for inhibitors of Plasmodium falciparum proliferation (AID 504749); also: nearly all actives have a fitted effect of over 60% in size
# Condition details: P. falciparum in erythrocytes, SYBR Green DNA, 72 h; series mostly up to 12.8 µM
# Protocol: NIH National Institute of Allergy and Infectious Diseases [NIAID] NIH Chemical Genomics Center [NCGC] […] Because mature erythrocytes lack DNA, only Plasmodium-derived DNA is detected. NCGC Assay Protocol Summary: The SYBR Green viability assay was adapted from a method described previously (Plouffe et al., 2008). […] The following morning, fluorescence intensity at 485(14) nm excitation and 535(25) nm emission wavelengths was measured on an EnVision (Perkin Elmer) plate reader. […]
Results filed as inconclusive are left out. Calls of active or inactive are those of the source. Calls come from the whole dose curve; as a rule, active = well fitted inhibition curve with a large enough effect; inconclusive = small, poorly fitted or top-dose-only effect; inactive = flat fitted curve, though single readings scatter.
// one of 1 for active, 0 for inactive, no free text

Problem: # lookup: test call for `NC(=O)OC[C@H](O)COc1ccc(Cl)cc1`
Result: 0

Problem: In this assay, the call recorded for `CCN(CC)CCC[C@H](C)Nc1c2ccc(Cl)cc2nc2ccc(OC)cc12` was what?
Result: 1

Problem: Hi, sorry to bother you, what did the test record for `C[N+]1(C)CCC[C@@H](OC(=O)C(O)(c2ccccc2)c2ccccc2)C1` ?
Result: 0

Problem: Query: recorded result category for `CN(N=O)C(=O)N[C@H]1[C@@H](O)[C@H](O)[C@H](CO)O[C@@H]1O` in this test
Result: 0

Problem: GET /call?item= `C[C@H](NCCc1ccc(O)cc1)[C@@H](O)c1ccc(O)cc1` returns the recorded outcome of this test.
Result: 0

Problem: Hi team, can someone confirm the assay call for `N[C@@H](CO)C(=O)NNCc1ccc(O)c(O)c1O` ?
Result: 0

Problem: Short answer needed: outcome of this test for `CC1(C)Oc2ccc(C#N)cc2[C@H](N2CCCC2=O)[C@H]1O` ?
Result: 0

Problem: Per the records of this test, what outcome belongs to `CN[C@@H](CC(C)C)C(=O)N[C@@H]1C(=O)N[C@H](CC(N)=O)C(=O)N[C@@H]2C(=O)N[C@H]3C(=O)N[C@H](C(=O)N[C@H](C(=O)O)c4cc(O)cc(O)c4-c4cc3ccc4O)[C@H](O)c3ccc(c(Cl)c3)Oc3cc2cc(c3O[C@H]2O[C@@H](CO)[C@@H](O)[C@@H](O)[C@@H]2O[C@@H]2C[C@](C)(N)[C@H](O)[C@H](C)O2)Oc2ccc(cc2Cl)[C@@H]1O` ?
Result: 0
